method.description: yeast display, Sf9 membrane polyspecificity reagent, FACS + sequencing; frameworks hold sequencing errors
attribute.measured: polyreactivity (PSR sort gate)

[[record]]
primary_sequence = "QVQLVESGGGLVQAGGSLRLSCAASGSTSRYYDMGWYRQAPGTERELVAAITWSGGTTYYADSVKGRFTISRDNAKNTVYLQMNSLKPEDTAVYYCAASRRGGLYTRYHYWGQGTQVTVSS"
reported = "low polyreactivity"

[[record]]
primary_sequence = "QVQLVESGGCIVQAGGSLRLSCAASGRICYTNAMVWYRQAPGKERELVAVISWGGDTTYYADSVKGRFTISRDNANNTVYLQMNSLKPEDTAGYYCNADWGPPYEIYDSWGQGTQVTVSS"
reported = "low polyreactivity"

[[record]]
primary_sequence = "QVQLVESGGGLVQAGGSLRLSCAASGITFKRYAMGWYRQAPGKERELVAAITISAGSTYYADSVKGRFTISRDNAKNNVYLQMNSLKPEDTAVYYCAAESYGSWYYYWGQGTQVTVSS"
reported = "high polyreactivity"

[[record]]
primary_sequence = "QVQLVESGGGLVQAGGSLRLSCAASGNIFAWSAMGWYRQAPGKERELVARITVGSTYYADSVKGRFTISRDNAKNTVYLQMNSLKPEDTAVYYCNKDSGEDDRWPYDYWGQGTQVTVSS"
reported = "low polyreactivity"

[[record]]
primary_sequence = "QVQLVESGGGLVQAGGSLRLSCAASGSIFAPYAMGRYRQAPGKERELVAAISTTGGTTYYADSVKGRFTISRDNAKNTVYLQMNSLKPEDTAVYYCAADWSESFGKGGDYWGQGTQVTVSS"
reported = "low polyreactivity"

[[record]]
primary_sequence = "QVQLVESGGGLVQAGGSLRLSCAASGRTFKKNAMGWYRQAPGKERELVAAITGSGGSTYYADSVKGRFTISRDNAKKTVYLQMNSLKPEDTAVYYCAAYAYGVWHSQDCGNYWGQGTQVTVSS"
reported = "low polyreactivity"

[[record]]
primary_sequence = "QVQLVESGGGLVQAGGSLRLSCAASGSIYRYTMGWYRQAPGKERELVASISLSGGRTYYADSVKGRFTISRDNAKNTVYLQMNSLKPEDTAVYDCGTDNRYRSSGQWIRRGYWGQGTQVTVSS"
reported = "high polyreactivity"

[[record]]
primary_sequence = "QVQLVESGGGLVQAGGSLRLICAASGSTFPTYAMGWYRQAPGKERELVAAIDSSGGNTYYADSVKGRFTISRDNAKNTVYLQMNSLKPEDTEVYYCARESVTYFWYYTPEVDYWGQGTQVTVSS"
reported = "low polyreactivity"

[[record]]
primary_sequence = "QVQLVESGGGLVQAGGSLRLSCAASGFIFTTYAMGWYRQAPGKERELVAAISTSGGRTYYADSVKGRFTISRDNAKNTVYLQMNSLKPEDTAVYYCNTYSYYSYDWGQGTQVTVSS"
reported = "high polyreactivity"

[[record]]
primary_sequence = "QVQLVESGGGLVQAGGSLRLSCAASGITFYPYAMGWYRQAPGKERELVAAITGSGGRTYYADSVKGRFTISRDNAKNTVYLQMNSLKPEDTAVYYCAKVARYPDMGYWGQGTQVTVSS"
reported = "high polyreactivity"

[[record]]
primary_sequence = "QVQLVESGGGLVQAGGSLRLSCAASGSTFDDYALGWYRQAPGKERELVAAISFSSGSTYYADSVKGRFTISRDNAKNTVYLQMNSLKPEDTAVYYCAAEKYGWTYYFSWQEDYWGQGTQVTVSS"
reported = "high polyreactivity"


Data origin, for the record: the nanobody polyreactivity screen of Harvey et al. (2022)
